Test: Toxicity in po dosed human assessed as maximum daily dose
Assay type: organism-based
Details: in vivo
Collected Activity values appear next to each entry.
Quote the value and follow it with the unit of measurement.

[
  {
    "compound": "CS(=O)(=O)CCNCc1ccc(-c2ccc3ncnc(Nc4ccc(OCc5cccc(F)c5)c(Cl)c4)c3c2)o1",
    "Activity": "1500 mg"
  },
  {
    "compound": "CC(C)(C)NC(=O)[C@@H]1C[C@@H]2CCCC[C@@H]2CN1C[C@@H](O)[C@H](Cc1ccccc1)NC(=O)[C@H](CC(N)=O)NC(=O)c1ccc2ccccc2n1",
    "Activity": "2000 mg"
  },
  {
    "compound": "Cc1c(C)c2c(c(C)c1O)CCC(C)(COc1ccc(CC3SC(=O)NC3=O)cc1)O2 (configuration not stated)",
    "Activity": "600 mg"
  },
  {
    "compound": "COC(=O)[C@H]1[C@H]2C[C@@H]3c4[nH]c5cc(OC)ccc5c4CCN3C[C@H]2C[C@@H](OC(=O)c2cc(OC)c(OC)c(OC)c2)[C@@H]1OC",
    "Activity": "0.5 mg"
  },
  {
    "compound": "CCCCC1=NC2(CCCC2)C(=O)N1Cc1ccc(-c2ccccc2-c2nnn[nH]2)cc1",
    "Activity": "300 mg"
  },
  {
    "compound": "CCc1nn(CCCN2CCN(c3cccc(Cl)c3)CC2)c(=O)n1CCOc1ccccc1",
    "Activity": "600 mg"
  }
]

Req: For the compound shown here, CCCN(CCC)C(=O)Cc1c(-c2ccc(Cl)cc2)nc2ccc(Cl)cn12 , give the reported Activity.
Resp: 150 mg

---

Assay: Toxicity in po dosed human assessed as maximum daily dose
Type: organism-based
Conditions: in vivo
readout: Activity (mg)
Provide only the numeric value, understood in mg.

Example compounds with recorded Activity:
[
  {
    "compound": "CCc1ccc(CCOc2ccc(CC3SC(=O)NC3=O)cc2)nc1 (stereo unspecified) [PIOGLITAZONE]",
    "Activity [mg]": 45
  },
  {
    "compound": "COC(=O)C1=C(C)NC(C)=C(C(=O)OCCN(C)Cc2ccccc2)C1c1cccc([N+](=O)[O-])c1 (stereo unspecified) [NICARDIPINE]",
    "Activity [mg]": 120
  },
  {
    "compound": "CC(=O)N1CCN(c2ccc(OCC3COC(Cn4ccnc4)(c4ccc(Cl)cc4Cl)O3)cc2)CC1 (stereo unspecified) [KETOCONAZOLE]",
    "Activity [mg]": 400
  }
]

Req: For the compound shown here, COc1ccc(Cl)cc1C(=O)NCCc1ccc(S(=O)(=O)NC(=O)NC2CCCCC2)cc1 [GLYBURIDE] , give the reported Activity.
Resp: 20

Req: For the compound shown here, CCCCc1nc(Cl)c(CO)n1Cc1ccc(-c2ccccc2-c2nn[nH]n2)cc1 [LOSARTAN] , give the reported Activity.
Resp: 100

Req: For the compound shown here, CN(CCOc1ccc(CC2SC(=O)NC2=O)cc1)c1ccccn1 (stereo unspecified) [ROSIGLITAZONE] , give the reported Activity.
Resp: 8
